System: U2OS
METHOD NOTES: Multiplex assay against U2OS
Format: toxicity, cell-based
CONDITION: human, 24 h, 1 µM, compound concentration 1 uM, replicate 2
MEASURE: Population Mitotic Cells (%)

[
  {
    "COMPOUND": "CCn1cc(-c2ccnc3[nH]c(-c4cccc(CN(C)C)c4)cc23)c(-c2ccc(NC(=O)N(C)C)cc2)n1 [GSK-1070916]",
    "VALUE OBSERVED": 60
  },
  {
    "COMPOUND": "CN1C2CCC1CC(OC(c1ccc(F)cc1)c1ccc(F)cc1)C2.Cl (centres undefined)",
    "VALUE OBSERVED": 80
  },
  {
    "COMPOUND": "CCc1cccc(CC)c1NC(=O)c1nn(C)c2c1CCc1cnc(Nc3ccc(C(=O)NC4CCN(C)CC4)cc3OC(F)(F)F)nc1-2",
    "VALUE OBSERVED": 62
  },
  {
    "COMPOUND": "COc1cc2ncnc(Nc3ccc(F)c(Cl)c3)c2cc1NC(=O)/C=C/CN1CCCCC1 [DACOMITINIB ANHYDROUS]",
    "VALUE OBSERVED": 25
  },
  {
    "COMPOUND": "CCNc1cc(N[C@H]2CC[C@H](O)CC2)nc(Nc2ccc3c(ccn3Cc3ccccc3)c2)n1",
    "VALUE OBSERVED": 29
  },
  {
    "COMPOUND": "C=CCn1c(=O)c2cnc(Nc3ccc(N4CCN(C)CC4)cc3)nc2n1-c1cccc(C(C)(C)O)n1 [ADAVOSERTIB]",
    "VALUE OBSERVED": 50
  },
  {
    "COMPOUND": "CCOc1cc(C(=O)N2CCC(N3CCN(C)CC3)CC2)ccc1Nc1ncc2c(n1)N(C1CCCC1)c1ccccc1C(=O)N2C",
    "VALUE OBSERVED": 77
  },
  {
    "COMPOUND": "CCCn1c(=O)c2[nH]c(-c3cnn(Cc4cccc(C(F)(F)F)c4)c3)nc2n(CC)c1=O [GS 6201]",
    "VALUE OBSERVED": 50
  },
  {
    "COMPOUND": "CCOC(=O)c1c(C)[nH]c2ccc3c(c12)CN1CCc2cc(OC)ccc2C1O3 (centres undefined)",
    "VALUE OBSERVED": 91
  },
  {
    "COMPOUND": "CCn1c(=O)c(-c2ccc(-c3cncs3)cc2Cl)cc2cnc(Nc3ccc(N4CCN(C)CC4)cc3)nc21",
    "VALUE OBSERVED": 53
  },
  {
    "COMPOUND": "CN1CCC(=C2c3ccccc3CC(=O)c3sccc32)CC1.O=C(O)/C=C/C(=O)O [KETOTIFEN FUMARATE]",
    "VALUE OBSERVED": 0
  },
  {
    "COMPOUND": "COc1ccc(S(=O)(=O)N(CCO)c2ccccc2CN(C)C/C=C/c2ccc(Cl)cc2)cc1.O=P(O)(O)O",
    "VALUE OBSERVED": 4
  },
  {
    "COMPOUND": "COC(=N)c1nc2ccc3ncnc(Nc4ccc(OC)cc4F)c3c2s1",
    "VALUE OBSERVED": 55
  },
  {
    "COMPOUND": "C=C1/C(=C\\C=C2/CCC[C@]3(C)[C@@H]([C@H](C)/C=C/[C@H](C)C(C)C)CC[C@@H]23)C[C@@H](O)C[C@@H]1O [DOXERCALCIFEROL]",
    "VALUE OBSERVED": 57
  },
  {
    "COMPOUND": "CN[C@@H]1C[C@H]2O[C@@](C)([C@@H]1OC)n1c3ccccc3c3c4c(c5c6ccccc6n2c5c31)C(=O)NC4 [STAUROSPORINE]",
    "VALUE OBSERVED": 5
  },
  {
    "COMPOUND": "CCCS(=O)(=O)c1nc(NC2CC2)cc(-c2ccc3c(ccn3C3CC(C)(C)NC(C)(C)C3)c2)n1",
    "VALUE OBSERVED": 77
  },
  {
    "COMPOUND": "Cl.O=c1c2cccn2c2ccccc2n1CCCN1CCC(c2ccc(Cl)cc2)CC1",
    "VALUE OBSERVED": 75
  },
  {
    "COMPOUND": "O=C(Cc1ccc(-c2ccc(OCCN3CCOCC3)cc2)cn1)NCc1ccccc1 [TIRBANIBULIN]",
    "VALUE OBSERVED": 38
  },
  {
    "COMPOUND": "CCN1CCN(Cc2ccc(Nc3ncc(F)c(-c4cc(F)c5nc(C)n(C(C)C)c5c4)n3)nc2)CC1.CS(=O)(=O)O",
    "VALUE OBSERVED": 41
  }
]

###

Test system: Fibroblast
METHOD NOTES: Incucyte cell viability with human fibroblast; note: filed as whole numbers so only -1 and 0 and 1 occur
Format: toxicity, cell-based
CONDITION: 0 h, 10 µM, compound concentration 10 uM, replicate number 2, timepoint 0 hours
Growth Rate values, listed per item

[
  {
    "COMPOUND": "Cl.Oc1ccc2c3c1O[C@H]1c4[nH]c5c(c4C[C@@]4(O)[C@@H](C2)N(CC2CC2)CC[C@]314)C[C@@]1(O)[C@H]2Cc3ccc(O)c4c3[C@@]1(CCN2CC1CC1)[C@H]5O4",
    "Growth Rate": 1
  },
  {
    "COMPOUND": "CC(C)NC(=O)c1ccc(C#Cc2ccncc2)cn1",
    "Growth Rate": 1
  },
  {
    "COMPOUND": "C[C@H]1Oc2cc(cnc2N)-c2c(nn(C)c2C#N)CN(C)C(=O)c2ccc(F)cc21 [LORLATINIB]",
    "Growth Rate": 0
  },
  {
    "COMPOUND": "CNC[C@H](O)c1cccc(O)c1 [PHENYLEPHRINE]",
    "Growth Rate": 0
  },
  {
    "COMPOUND": "Cc1ccc(-c2cnc([C@@]3(O)CC[C@H](C(=O)O)C(C)(C)C3)s2)cc1Nc1cccc(C(F)(F)F)n1 [MRL-SYKi-NC]",
    "Growth Rate": 0
  },
  {
    "COMPOUND": "CC(C)(C(=O)O)c1ccc(C(O)CCCN2CCC(C(O)(c3ccccc3)c3ccccc3)CC2)cc1.Cl (stereo not drawn) [FEXOFENADINE HYDROCHLORIDE]",
    "Growth Rate": 1
  },
  {
    "COMPOUND": "NC(=O)c1cccc(-c2cc(Nc3ccc(OC(F)(F)F)cc3)ncn2)c1",
    "Growth Rate": 0
  },
  {
    "COMPOUND": "CN1CCN(C(=O)C(C)(C)c2ccc(C(=O)Nc3cn4cc(-c5ccncc5)ccc4n3)cc2)CC1 [T3-CLK]",
    "Growth Rate": 0
  },
  {
    "COMPOUND": "O=C1NCN(c2ccccc2)C12CCN(CC1COc3ccccc3O1)CC2 (stereo not drawn) [SPIROXATRINE]",
    "Growth Rate": 1
  },
  {
    "COMPOUND": "CCOc1cc(C(=O)N2CCC(N3CCN(C)CC3)CC2)ccc1Nc1ncc2c(n1)N(C1CCCC1)c1ccccc1C(=O)N2C",
    "Growth Rate": 0
  },
  {
    "COMPOUND": "CN1CCN(C(=O)C(C)(C)c2ccc(C(=O)Nc3cn4cc(-c5cc(C(C)(C)C)cc(C(C)(C)C)c5)ccc4n3)cc2)CC1 [T3-CLK-N]",
    "Growth Rate": 0
  },
  {
    "COMPOUND": "CC1(C)C(=O)C(C)(C)c2cc(C(=O)Nc3ccc(C(=O)O)cc3)ccc21",
    "Growth Rate": 1
  },
  {
    "COMPOUND": "CCc1cccc(CC)c1NC(=O)c1nn(C)c2c1CCc1cnc(Nc3ccc(N4CCN(C)CC4)cc3OC)nc1-2",
    "Growth Rate": 1
  },
  {
    "COMPOUND": "CN1CCN(c2cnc3c(C4CCN(C(=O)c5ccc(OC(F)(F)F)cc5N)CC4)ncnc3c2)CC1 [BAY-885]",
    "Growth Rate": 0
  },
  {
    "COMPOUND": "CCCS(=O)(=O)Nc1ccc(F)c(C(=O)c2c[nH]c3ncc(Cl)cc23)c1F [PLX-4720]",
    "Growth Rate": 0
  },
  {
    "COMPOUND": "CC(C)C[C@H](CO)Nc1nc(S[C@@H](C)c2ccccc2)nc2nc(N)sc12 [AZD-8797]",
    "Growth Rate": 0
  },
  {
    "COMPOUND": "Cc1nc(NC(=O)N2CCC[C@H]2C(N)=O)sc1-c1ccnc(C(C)(C)C(F)(F)F)c1 [ALPELISIB]",
    "Growth Rate": 0
  },
  {
    "COMPOUND": "CN(C)[C@H]1CCN(c2cc(-c3ccccc3)nc3ccnn23)C1 [(S)-ZINC-3573]",
    "Growth Rate": 1
  },
  {
    "COMPOUND": "COc1cc(N2CCC(N3CCN(C)CC3)CC2)ccc1Nc1ncnc(Nc2ccccc2S(=O)(=O)C(C)C)n1 [ASP-3026]",
    "Growth Rate": 0
  },
  {
    "COMPOUND": "CCCCCNC(=O)NS(=O)(=O)c1cc([N+](=O)[O-])ccc1NC1CCCCC1",
    "Growth Rate": 1
  },
  {
    "COMPOUND": "O=C1NC(=O)C(c2cnc3ccccn23)=C1c1cn2c3c(cc(F)cc13)CN(C(=O)N1CCCCC1)CC2 [LY-2090314]",
    "Growth Rate": 1
  },
  {
    "COMPOUND": "C[C@@H](c1cccc(C#N)c1)n1cc(Cl)cc(C(N)=O)c1=N.Cl",
    "Growth Rate": 1
  },
  {
    "COMPOUND": "Cc1cc(C)c(S(=O)(=O)N(Cc2ccc(-c3cccc(S(C)(=O)=O)c3)cc2)Cc2ccc(C(F)(F)F)o2)c(C)c1",
    "Growth Rate": 0
  },
  {
    "COMPOUND": "Cc1cnc(Nc2ccc(F)cc2Cl)nc1-c1c[nH]c(C(=O)N[C@H](CO)c2cccc(Cl)c2)c1",
    "Growth Rate": 0
  },
  {
    "COMPOUND": "CC(=O)C1=C(C)N(c2cccc(C(F)(F)F)c2)C(=O)N[C@@H]1c1ccc(C#N)nc1 [BAY-678]",
    "Growth Rate": 0
  },
  {
    "COMPOUND": "C=CC(=O)N1CCC([C@@H]2CCNc3c(C(N)=O)c(-c4ccc(Oc5ccccc5)cc4)nn32)CC1 [ZANUBRUTINIB]",
    "Growth Rate": 0
  },
  {
    "COMPOUND": "CC[C@H](CO)Nc1nc(NCc2ccccc2)c2ncn(C(C)C)c2n1 [SELICICLIB]",
    "Growth Rate": 0
  },
  {
    "COMPOUND": "Cl.O=C([C@@H](Cc1cccc(C(F)(F)F)c1)NS(=O)(=O)c1cc(F)c2c(c1)CCNC2)N1CCCC1",
    "Growth Rate": 1
  },
  {
    "COMPOUND": "CC(C)c1onc(-c2c(Cl)cccc2Cl)c1COc1ccc(/C=C/c2cccc(C(=O)O)c2)c(Cl)c1",
    "Growth Rate": 1
  },
  {
    "COMPOUND": "COc1cc(OC)cc(-c2noc(N3CCN(C)C4(CCN(c5ccnc(C)c5)CC4)C3)n2)c1",
    "Growth Rate": 0
  },
  {
    "COMPOUND": "CCCc1c(OCCCOc2ccc(OCC(=O)O)cc2)ccc(C(C)=O)c1O",
    "Growth Rate": 1
  },
  {
    "COMPOUND": "NS(=O)(=O)c1c(Cl)ccc(NC(=O)Nc2cccc(Cl)c2Cl)c1O",
    "Growth Rate": 1
  },
  {
    "COMPOUND": "CC(C)(C)OC(=O)N1CCCC1CNC1CCC(c2cc(F)ccc2F)(S(=O)(=O)c2ccc(Cl)cc2)CC1 (stereo not drawn) [GSI-NC]",
    "Growth Rate": 0
  }
]

Data provenance is ChEMBL document CHEMBL4689842.
